condition_set: octanol/water
logP vs 2: less than gives T; not less than gives F.

CC(=O)NCc1ccc(CN2CCN(c3ccccn3)CC2)cc1    T
CC(=O)NC(C)c1ccc(CN2CCN(c3ccccc3)CC2)cc1 (configuration not stated)    F
CC(=O)NC1(c2ccc(CN3CCN(c4nccs4)CC3)cc2)CC1    T
CC(=O)NC1(c2ccc(CN3CCN(c4ncccn4)CC3)cc2)CC1    T
CCC(NC(C)=O)c1ccc(CN2CCN(c3ccccc3)CC2)cc1 (configuration not stated)    F
CC(=O)NCc1ccc(CN2CCN(c3ccccc3)CC2)cc1    T
CC(=O)NCc1ccc(CN2CCN(c3cccc(F)n3)CC2)cc1    T
CC(=O)NC(C)(C)c1ccc(CN2CCN(c3ncccn3)CC2)cc1    T
CC(=O)NC(C)(C)c1ccc(CN2CCN(c3cccc(F)n3)CC2)cc1    F
CC(=O)NCc1ccc(CN2CCN(c3cccnc3)CC2)cc1    T
CC(=O)NCc1ccc(CN2CCN(c3nccs3)CC2)cc1    T
CC(=O)NC(C)c1ccc(CN2CCN(c3ncccn3)CC2)cc1 (configuration not stated)    T

These measurements were taken from ChEMBL document CHEMBL1133350.
